System: SK-MEL-5 melanoma
EXPERIMENT SUMMARY: NCI tumour cell line growth inhibition, 48 h
Documented TGI across a set of compounds

| COMPOUND | MEASURED |
| --- | --- |
| CC1CCCP(=O)(c2ccccc2)CC1 (stereo not drawn) | > 100 µM |
| CCOC(=O)c1nc2cc(C(F)(F)F)ccc2nc1Nc1ccc(OC)c(OC)c1 | > 100 µM |
| O=C1c2ccccc2C(=O)c2c1ccc(C(Br)Br)c2Cl | 18.1 µM |

Hi! What's the reported TGI for Cc1cc(C)c(C2CC(O)C(CO)O2)cc1C (stereo not drawn) on SK-MEL-5 melanoma? > 100 µM

Hi! What's the reported TGI for O=CC1C(Cl)=Nc2nc3ccccc3n2C1c1ccc([N+](=O)[O-])cc1 (stereo not drawn) on SK-MEL-5 melanoma? 37.9 µM

Hi! What's the reported TGI for C=C(CN(C)C)C1(c2ccccc2)CC2(CCCC2)C(=O)O1 (stereo not drawn) on SK-MEL-5 melanoma? > 100 µM

Hi! What's the reported TGI for CC(C)OP(=O)(OC(C)C)C([CH2][Sn]([CH3])([CH3])[Cl])P(=O)(OC(C)C)OC(C)C on SK-MEL-5 melanoma? 31 µM

Hi! What's the reported TGI for O=c1n(N=S(=O)(c2ccccc2)c2ccccc2)c(=O)n2n1C1C=CC2CC1 on SK-MEL-5 melanoma? > 100 µM

Hi! What's the reported TGI for Cc1nnc(N)nc1/C=C\c1ccc(N(C)C)cc1 on SK-MEL-5 melanoma? > 100 µM

Hi! What's the reported TGI for CCCCCC(/C=C/C1CCC(=O)C1)OCOCCOC (stereo not drawn) on SK-MEL-5 melanoma? > 100 µM

Hi! What's the reported TGI for C=CS(=O)(=O)c1c2cc(OC)ccc2nc2ccc(OC)cc12 on SK-MEL-5 melanoma? 27 µM

Hi! What's the reported TGI for O=C(CSc1nccc(=O)[nH]1)c1ccccc1 on SK-MEL-5 melanoma? > 100 µM

Hi! What's the reported TGI for CC#CC(OCC)(OCC)OCC on SK-MEL-5 melanoma? > 100 µM

Hi! What's the reported TGI for CC1=c2c(oc3cc(O)c(Nc4c(C)cc(O)cc4O)c(C)c23)=CC(=O)C1=Nc1c(C)cc(O)cc1O on SK-MEL-5 melanoma? 35.1 µM

Hi! What's the reported TGI for N#CC(C#N)N=Nc1ccc(-c2nc3ccccc3[nH]2)cc1 on SK-MEL-5 melanoma? > 100 µM

Hi! What's the reported TGI for CCCCCC(=O)N[C@H]1CCc2cc(OC)c(OC)c(OC)c2-c2ccc(SC)c(=O)cc21 on SK-MEL-5 melanoma? 0.0484 µM

Hi! What's the reported TGI for S=C(NC/C(Br)=C/Br)Nc1cccc2ccccc12 on SK-MEL-5 melanoma? 34.3 µM

Hi! What's the reported TGI for CN(C)CCc1ccc(Cl)cc1Cl on SK-MEL-5 melanoma? > 100 µM

Hi! What's the reported TGI for COc1ccc2c(c1)CN1C(=N2)CSC1c1c(Cl)cccc1[N+](=O)[O-] (stereo not drawn) on SK-MEL-5 melanoma? 27 µM

Hi! What's the reported TGI for CC1=C(C(=O)NNC(=O)c2ccccc2)CC(C(=O)NNC(=O)c2ccccc2)=C(C)N1 on SK-MEL-5 melanoma? > 100 µM

Hi! What's the reported TGI for CC(=O)NC(Cc1cnc[nH]1)C(=O)N1CCCC1C(N)=O (stereo not drawn) on SK-MEL-5 melanoma? > 100 µM

Hi! What's the reported TGI for Cc1ccc2nc(-n3c(/C=C/c4ccccc4O)nc4ccccc4c3=O)sc2c1 on SK-MEL-5 melanoma? > 100 µM

Hi! What's the reported TGI for COc1ccc2c(c1)OCC1c3cc(O)ccc3OC21 (stereo not drawn) on SK-MEL-5 melanoma? > 100 µM
